Source of measurements: PubChem BioAssay

# Protocol Notes: growth suppression of beta-catenin knockout HCT116, pilot screen, human colon tumor cells (AID 823);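 also: 0% = wells killed by 20 µM Hyamine and 100% = untreated DMSO cell wells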
# Test Context: CellTiter-Glo, 60 h, at 10 µM, hits give low values
Records with an inconclusive call do not appear.
Metric: viability (%)

# Molecule, Metric, Recorded Result
data = [
    ("CCN(CC)S(=O)(=O)c1ccc(Cl)c(C(=O)NC)c1", "viability", 105),
    ("O=C(CCNS(=O)(=O)c1cccc2nsnc12)NCCc1ccccc1", "viability", 105),
    ("O=S(=O)(Nc1ccc(-c2nc3cccnc3s2)cc1)c1cccs1", "viability", 110),
    ("CCC(C)NC(=O)C1CCN(S(=O)(=O)c2cccc3cccnc23)CC1 (stereo not drawn)", "viability", 108),
    ("CCc1ccc(S(=O)(=O)NCc2cn3c(C)csc3n2)s1", "viability", 102),
    ("COc1ccc2ccccc2c1C1CC(=O)N2CN(C3CCCCC3)CSC2=C1C#N (stereo not drawn)", "viability", 81.3),
    ("Cn1c(NC(=O)c2ccc(F)c(F)c2)cc(=O)n(C)c1=O", "viability", 95.7),
    ("CCOC(=O)N1CCC(NC(=O)CN2C(=O)CSc3nc(C)cc(C)c32)CC1", "viability", 109),
    ("O=S1(=O)N=C(Nc2ccc(O)c(CN3CCCCC3)c2)c2ccccc21", "viability", 90.8),
    ("CCOC(=O)C1=C(O)/C(=C/N(C)C)N=C1C", "viability", 103),
    ("COc1ccc(Cl)cc1NC(=O)CSc1nnc(Cn2c(=O)sc3ccccc32)n1C", "viability", 96.6),
    ("CC(C)N1CCc2c(sc(NC(=O)c3ccc(S(=O)(=O)N4CCOCC4)cc3)c2C#N)C1", "viability", 85.3),
    ("COc1ccc(Cc2nc(-c3ccc(Br)o3)no2)cc1OC", "viability", 92.2),
    ("COC(=O)CSC1=C(C#N)C(c2ccc(C(C)C)cc2)CC(=O)N1 (stereo not drawn)", "viability", 89.8),
    ("CCNc1nc(C)nc2c1oc1ccccc12", "viability", 101),
    ("COc1ccccc1OCC(=O)Nc1ccc(S(=O)(=O)NC(C)=O)cc1", "viability", 89.2),
    ("O=C(C(c1ccccc1)c1ccccc1)N1CCOCC1", "viability", 100),
    ("COc1ccc(OC)c(NC(=O)Nc2ccccc2C)c1", "viability", 102),
    ("COCc1cc(CN2CCCC2)c(O)c2ncccc12", "viability", 8.07),
    ("COc1ccc(-c2[nH]ncc2-c2cnc(C)s2)c(O)c1", "viability", 99.2),
    ("CC(C)OC(=O)CSc1nnc(-c2ccc(Cl)cc2)n1N", "viability", 97.2),
    ("Cc1ccc(C)c(N2CCN(C(=O)CCc3nc4ccccc4[nH]3)CC2)c1", "viability", 80.9),
    ("O=C(CCNS(=O)(=O)c1cccc2nsnc12)NCCC1=CCCCC1", "viability", 90.6),
]
